Value source: ChEMBL document CHEMBL1667829

molecular target: Arylamine N-acetyltransferase (Mycolicibacterium smegmatis, UniProt O86309); experiment: Inhibition of Mycobacterium smegmatis NAT using isoniazed substrate by acetyl-coA hydrolysis assay
Sequence (O86309 whole entry): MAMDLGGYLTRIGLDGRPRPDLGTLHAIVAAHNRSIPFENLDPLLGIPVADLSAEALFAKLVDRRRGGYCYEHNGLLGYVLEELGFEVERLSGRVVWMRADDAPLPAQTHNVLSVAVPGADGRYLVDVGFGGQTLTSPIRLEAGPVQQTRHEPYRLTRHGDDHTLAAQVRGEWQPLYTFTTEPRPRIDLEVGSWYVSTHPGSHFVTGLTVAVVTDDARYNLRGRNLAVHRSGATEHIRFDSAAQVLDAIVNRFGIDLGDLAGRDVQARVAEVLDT
measuredQuantity: IC50 (µM)
Respond numerically; units are µM and should not be typed.

Sample CC1(C)NC(=O)N(CC(O)COc2ccccc2C2CCCC2)C1=O (configuration not stated) — what was its IC50?
9.4

----------
system: Mycobacterium marinum; experiment: Inhibition of Mycobacterium marinum NAT using isoniazed substrate at 30 uM by acetyl-coA hydrolysis assay
Please mark Y if the recorded inhibition is equal to or greater than 4%, and N if it falls below.

Confirm if inhibition reported for the compound O=C1NC(c2ccccc2)C(=O)N1CC(O)COc1ccccc1 (configuration not stated) is 4% or above.
N

// next record CC1(C)NC(=O)N(CC(O)COc2ccccc2Br)C1=O (configuration not stated)
Y

// next record O=C1CNC(=O)N1CC(O)COc1ccccc1 (configuration not stated)
N

// next record CC1(C)NC(=O)N(CC(O)COc2ccc(C3CCCC3)cc2)C1=O (configuration not stated)
N

// next record Cc1ccccc1OCC(O)CN1C(=O)NC(C)(C)C1=O (configuration not stated)
N

// next record CC1(C)NC(=O)N(CC(O)COc2ccc(-c3ccccc3)cc2)C1=O (configuration not stated)
Y

// next record CC1(C)NC(=O)N(CC(O)COc2ccccc2F)C1=O (configuration not stated)
N

// next record CC1(C)NC(=O)N(CC(O)COc2ccccc2C2CCCC2)C1=O (configuration not stated)
Y

// next record CC1(C)NC(=O)N(CC(O)COc2ccccc2-c2ccccc2)C1=O (configuration not stated)
Y

// next record CC1(C)NC(=O)N(CC(O)COc2ccccc2-c2cccc3ccccc23)C1=O (configuration not stated)
Y

// next record CC1(C)NC(=O)N(CC(O)COc2cccc(-c3ccccc3)c2)C1=O (configuration not stated)
Y

----------
biological target: Arylamine N-acetyltransferase (Mycolicibacterium smegmatis, UniProt O86309); experiment: Inhibition of Mycobacterium smegmatis NAT using 5-aminosalicylate substrate by acetyl-coA hydrolysis assay
Provide the recorded IC50 for the entries that follow.

Value wanted: IC50 (Arylamine N-acetyltransferase (Mycolicibacterium smegmatis, UniProt O86309)) of entry CC1(C)NC(=O)N(CC(O)COc2ccc(C3CCCC3)cc2)C1=O (configuration not stated)
> 50 µM

// next record CC1(C)NC(=O)N(CC(O)COc2ccccc2C2CCCC2)C1=O (configuration not stated)
17.7 µM

----------
experiment: Inhibition of Mycobacterium marinum NAT using hydralazine substrate by acetyl-coA hydrolysis assay
measuredQuantity: IC50 (nM)
Respond numerically; units are nM and should not be typed.

Sample CC1(C)NC(=O)N(CC(O)COc2ccccc2C2CCCC2)C1=O (stereo unspecified) — what was its IC50?
1500

----------
target: Arylamine N-acetyltransferase (Pseudomonas aeruginosa (strain ATCC 15692 / PAO1 / 1C / PRS 101 / LMG12228)); test: Inhibition of Pseudomonas aeruginosa NAT using 5-aminosalicylate substrate by acetyl-coA hydrolysis assay
Sequence (Q9HUY3 whole entry): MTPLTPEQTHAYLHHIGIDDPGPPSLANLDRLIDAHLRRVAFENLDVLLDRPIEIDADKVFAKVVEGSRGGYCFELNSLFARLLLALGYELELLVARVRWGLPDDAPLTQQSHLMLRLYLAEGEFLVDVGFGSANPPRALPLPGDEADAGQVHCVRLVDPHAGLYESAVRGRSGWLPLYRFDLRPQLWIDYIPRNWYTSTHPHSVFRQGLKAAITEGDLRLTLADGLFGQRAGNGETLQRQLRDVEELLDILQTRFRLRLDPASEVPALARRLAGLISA
measuredQuantity: IC50 (µM)
Respond numerically; units are µM and should not be typed.

Sample CC1(C)NC(=O)N(CC(O)COc2ccccc2C2CCCC2)C1=O (configuration not stated) — what was its IC50?
16.2
